# Tested on: Human immunodeficiency virus 1
# experiment_description: Antiviral activity against Human immunodeficiency virus 1 LAI infected in human PBMC
# Format: functional, organism-based
# study_conditions: Human immunodeficiency virus 1, M:B_Lai
property_label: pEC50
Answers are plain numbers, as −log10 of the molar value.

| smiles_text | pEC50 |
| --- | --- |
| Nc1nc2c(c(=O)[nH]1)c1c(N)ncnc1n2[C@@H]1O[C@H](CO)[C@@H](O)[C@H]1O | 5.03 |
| C[C@@]1(O)[C@H](O)[C@@H](CO)O[C@H]1n1c2ncnc(N)c2c2c(=O)[nH]c(N)nc21 | 5.48 |

Field: next molecule
Ask | What is its pEC50 for Human immunodeficiency virus 1? Entry: Nc1ncnc2c1c1c(=O)[nH]c(S)nc1n2[C@@H]1O[C@H](CO)[C@@H](O)[C@H]1O
Reply | 5.02
